Reference for the values: ChEMBL document CHEMBL1129640

subject of test: Amine oxidase [flavin-containing] B (Bos taurus)
procedure text: Ratio of Kcat and KM against monoamine oxidase B (MAO-B) from beef liver was calculated
condition label: cattle
A collection of molecules and their measured Ratio
// print number alone

Some solved entries appear below for comparison.
{"columns": ["smiles str", "subject of test", "Ratio"],
 "data": [
  ["CCCN1CC=C(c2ccccc2)CC1", "Amine oxidase [flavin-containing] B (Bos taurus)", 4],
  ["C1=C(Oc2ccccc2)CC[N+](C2CC2)=C1", "Amine oxidase [flavin-containing] B (Bos taurus)", 1650],
  ["O=C([O-])C(=O)O.O=[N+]([O-])c1ccc(OC2=CC=[N+](C3CC3)CC2)cc1", "Amine oxidase [flavin-containing] B (Bos taurus)", 150],
  ["Cn1cccc1C1=CC=[N+](C2CC2)CC1", "Amine oxidase [flavin-containing] B (Bos taurus)", 413],
  ["CCOC(=O)C1=CCN(C)CC1", "Amine oxidase [flavin-containing] B (Bos taurus)", 433]
]}

QUERY: Field: Ratio (Amine oxidase [flavin-containing] B (Bos taurus)). Entry: "CN1CC=C(C2CC2)CC1"
RESULT: 974

QUERY: Field: Ratio (Amine oxidase [flavin-containing] B (Bos taurus)). Entry: "C#CC1=CCN(C)CC1"
RESULT: 790

QUERY: Field: Ratio (Amine oxidase [flavin-containing] B (Bos taurus)). Entry: "CN1CC=C(c2ccc([N+](=O)[O-])cc2)CC1"
RESULT: 16

QUERY: Field: Ratio (Amine oxidase [flavin-containing] B (Bos taurus)). Entry: "Clc1ccc(OC2=CC=[N+](C3CC3)CC2)cc1"
RESULT: 136

QUERY: Field: Ratio (Amine oxidase [flavin-containing] B (Bos taurus)). Entry: "CN1CC=C(CCc2ccccc2)CC1"
RESULT: 1130

QUERY: Field: Ratio (Amine oxidase [flavin-containing] B (Bos taurus)). Entry: "C1=C(c2ccccc2)CCNC1"
RESULT: 319

###

subject of test: Amine oxidase [flavin-containing] B (Bos taurus, UniProt P56560)
Sequence (P56560 whole entry): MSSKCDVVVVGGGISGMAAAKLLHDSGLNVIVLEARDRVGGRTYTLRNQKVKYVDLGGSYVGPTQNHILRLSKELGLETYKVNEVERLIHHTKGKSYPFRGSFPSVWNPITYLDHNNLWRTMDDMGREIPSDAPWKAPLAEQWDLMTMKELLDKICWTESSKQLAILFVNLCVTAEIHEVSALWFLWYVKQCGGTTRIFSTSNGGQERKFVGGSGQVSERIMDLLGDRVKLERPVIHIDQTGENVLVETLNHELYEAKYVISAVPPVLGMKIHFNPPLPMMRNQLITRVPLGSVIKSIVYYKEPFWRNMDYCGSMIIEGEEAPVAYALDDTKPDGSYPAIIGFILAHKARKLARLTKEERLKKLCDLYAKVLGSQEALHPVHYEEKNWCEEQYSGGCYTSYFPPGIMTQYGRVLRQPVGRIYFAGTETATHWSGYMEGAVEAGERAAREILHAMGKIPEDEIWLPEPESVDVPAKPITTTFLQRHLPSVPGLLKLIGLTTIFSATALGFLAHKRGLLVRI
procedure text: Ratio of Kcat and KM against monoamine oxidase B (MAO-B) from beef liver was calculated
condition label: cattle
measurement label: Ratio
// print number alone

Some solved entries appear below for comparison.
{"columns": ["smiles str", "measurement label", "recorded number"],
 "data": [
  ["CN1CC=C(Cn2cccc2)CC1", "Ratio", 347],
  ["CN1CC=C(Oc2ccccc2)CC1", "Ratio", 4151],
  ["Cc1ccccc1C1=CC=[N+](C2CC2)CC1", "Ratio", 630],
  ["C[C@@H]1NC(=O)[C@H](NC(=O)[C@@H](N)Cc2ccc(O)cc2)C(C)(C)SSC(C)(C)[C@@H](C(O)O)NC(=O)[C@H](Cc2ccccc2)NC1=O", "Ratio", 19],
  ["CN1CC=C(c2ccc(N)cc2)CC1", "Ratio", 54],
  ["CN1CC=C(C2CCCCC2)CC1", "Ratio", 688]
]}

QUERY: Entry "C1=C(Cc2ccccc2)CC[N+](C2CC2)=C1" : reported Ratio = ?
RESULT: 1538

QUERY: Entry "CN1CC=C(c2cccs2)CC1" : reported Ratio = ?
RESULT: 55

QUERY: Entry "CN1CC=C(/C=C\c2ccccc2)CC1" : reported Ratio = ?
RESULT: 912

QUERY: Entry "CN1CC=C(OC(=O)N(C)c2ccccc2)CC1" : reported Ratio = ?
RESULT: 67

QUERY: Entry "CN1CC=C(OC(=O)N(C)C)CC1" : reported Ratio = ?
RESULT: 57

QUERY: Entry "C=CC1=CCN(C)CC1" : reported Ratio = ?
RESULT: 2370

QUERY: Entry "CN1CC=C(C(C)(C)C)CC1" : reported Ratio = ?
RESULT: 92

QUERY: Entry "Clc1ccc(C2=CCNCC2)cc1" : reported Ratio = ?
RESULT: 382

QUERY: Entry "C1=C(Oc2cccs2)CC[N+](C2CC2)=C1" : reported Ratio = ?
RESULT: 1900

QUERY: Entry "CN1CC=C(Cc2ccccc2)CC1" : reported Ratio = ?
RESULT: 3580
